Tested on: MOLT-4 leukemia
test: NCI tumour cell line growth inhibition, 48 h

molecule | GI50
CC(C)(C)[Si](C)(C)OC1[C@@H](CNC(=O)NC(=O)CCl)O[C@@H](n2cnc3c(N)ncnc32)[C@H]1O[Si](C)(C)C(C)(C)C (stereo partly drawn) | 530 nM
COc1ccc(-c2nn(-c3cccc(Cl)c3)cc2-c2cc(-c3ccccc3)[nH]c(=O)c2C#N)cc1 | 42300 nM
Cc1cn(-c2cc(C(=O)Nc3cccc(-n4ccc5c(NC(=O)c6ccccc6)nccc54)c3)cc(C(F)(F)F)c2)cn1 | 531 nM

----------
Test system: 786-0 renal
test: NCI tumour cell line growth inhibition, 48 h

molecule | TGI
NNC1=N/C(=C\c2ccco2)C(Cl)=N1 | > 100 µM
COc1ccc(/C=C2\C[C@H]3[C@@H]4CCC5=C/C(=N/O)CC[C@]5(C)[C@H]4CC[C@]3(C)\C2=N\O)cc1OC | > 100 µM
O=C(Cc1ccccc1)NN1C(=O)/C(=C\c2ccccc2)SC1=Nc1ccccc1 | > 100 µM
CCN1c2ccccc2-c2c3c1cc(C)cc3c1ccccc1[n+]2CC | 4.22 µM
COC(=O)CCc1cc(OC)c2c(c1)[C@H](C(=O)OC)[C@@H](c1ccc(O)c(OC)c1)O2 | > 100 µM
O=C(Cc1nc2c3c(ccc2[nH]c1=O)C(=O)c1ccccc1C3=O)C(=O)Nc1ccccc1[N+](=O)[O-] | 34.4 µM
O=C(c1ccco1)c1c(C(F)(F)F)n([O-])c2ccc(C(F)(F)F)cc2[n+]1=O | 0.831 µM
Nc1nc(-c2ccc(Cl)c([N+](=O)[O-])c2)cs1 | > 100 µM
COc1ccc(-c2nccn2-c2ccc(OC)cc2)cc1 | 60.6 µM
O=C1CC(C(O)(C(F)(F)F)C(F)(F)Cl)CCC1C(O)(C(F)(F)F)C(F)(F)Cl (stereo not drawn) | > 10 µM
COC(c1ccc(C(C)(C)C)cc1)(c1ccc(C(C)(C)C)cc1)c1ccc(C(C)(C)C)cc1 | > 100 µM
CCOC(=O)c1c(-c2ccccc2)c(-c2ccccc2)cn1C | > 10 µM
CC(C)=C1CCC(CN(C)C)C1=O (stereo not drawn) | 25.9 µM

----------
Test system: OVCAR-3 ovarian
test: NCI tumour cell line growth inhibition, 48 h
Readings of TGI for the listed molecules
propertyLabel: TGI

compoundStructureString | measValue
Nc1c(-c2ccccc2-c2c(N)[n+]([O-])c3ccccc3[n+]2[O-])[n+]([O-])c2ccccc2[n+]1[O-] | > 100 µM
COc1cc2nc(-c3cccs3)oc(=O)c2cc1OC | > 100 µM
N#CCc1nc(-c2ccccc2)n[nH]1 | > 100 µM

----------
Tested on: NCI-H23 lung
test: NCI tumour cell line growth inhibition, 48 h
Readings of TGI for the listed compounds

compound | TGI
CCN1c2ccccc2-c2c3c1cc(C)cc3c1ccccc1[n+]2CC | 4.08 µM
Cc1ccc([N+](=O)[O-])cc1N=NC(=O)NNc1cc([N+](=O)[O-])ccc1C | > 100 µM
Oc1[nH]c2ccc(Br)cc2c1N=NC(=S)Nc1ccc(F)cc1 | 6.96 µM
CCC/C=C/C=C/C1CC(O)C(O)C(=O)C1CO (stereo not given) | > 100 µM
Nc1ccccc1O.O.O=C(O)C1[O][Sb][O]C1C(=O)O (stereo not given) | 44.2 µM
COC(=O)c1cc2c(o1)-c1nccc3c1c(nc1ccccc13)C2=O | 26.7 µM
c1csc(-c2ccc(-c3cccs3)c3nsnc23)c1 | > 68.4 µM
Nc1nc(N)c(N=O)c(Nc2ccc(Br)cc2)n1 | > 100 µM
CC(=O)c1cccn1/C=C(\OC(=O)OC(C)(C)C)c1ccc[nH]1 | > 100 µM
C=C1c2cc3c(cc2CC12Cc1cc4c(cc1C2=O)CCC4)CCC3 (stereo not given) | > 100 µM
N#CCCN1C/C(=C/c2ccc(Br)cc2)C(=O)/C(=C/c2ccc(Br)cc2)C1 | 7.58 µM
C[C@@H]1S[C@H](c2ccccc2F)N2Cc3ccccc3N=C12 | > 100 µM
CC1=C(C#N)C(=O)CC(c2ccc(Cl)cc2)N(C)N1 (stereo not given) | > 100 µM
COc1cc(/C=C\c2cc(OC)c(OC)c(OC)c2)cc(N/C=C\C(=O)c2c[nH]c3ccccc23)c1OC | 16.2 µM
COc1ccc(C(=O)c2cc(OC)c(OC)c(OC)c2)cc1OC | > 100 µM
ClCCN(CCCl)c1ccc(CNc2ccccc2)cc1 | > 100 µM
Cn1c(=O)c2c(nc(C(=N)SCC(=O)O)n2C)n(C)c1=O | > 100 µM
COc1cc2cc(Oc3ccc(NC(=O)c4cc(C(F)(F)F)cc(C(F)(F)F)c4)cc3)c(C)nc2cc1OC | > 50 µM
Cc1cn([C@@H]2C[C@H](CO)[C@@H](O)C2)c(=O)[nH]c1=O | > 100 µM
Cc1cc2c([N+](=O)[O-])cc3c(c2o1)C(=O)C=CC3=O | 34.9 µM

----------
Readings of TGI for the listed molecules
System: NCI-H23 lung
test: NCI tumour cell line growth inhibition, 48 h
Where a SMILES comes first, the peptide text is derived from it. Bridges are numbered along the chain shown (N, C = ends). [ ]: non-standard residue; d: D form. The star is where a group is joined. ξ: configuration not given here. X26 = O=C(/C=C/C=C/C=C/C=C/C=C/C(=O)*)NC1=C(O)CCC1=O; NMeA = CN[C@@H](C)C(=O)O; ξF = NC(Cc1ccccc1)C(=O)O; ξA = CC(N)C(=O)O

molecule | TGI
N#CCc1nc(-c2ccccc2)n[nH]1 | > 100 µM
COc1ccc(-c2oc(/C=N/NC(N)=S)c([N+](=O)[O-])c2-c2ccc(OC)c(OC)c2)cc1OC | > 100 µM
COC(=O)c1c2c(cc3c1CCC3)CCC2 | > 100 µM
CCC1CN2CCc3cc(OC)c(OC)cc3C2CC1CC1c2cc(OC)c(OC)cc2CCN1C(=O)C1CCCN1 (stereo not drawn) | > 100 µM
O=C(CNc1c(Cl)cccc1Cl)NC1C=Cc2ccc(S(=O)(=O)Nc3c(Cl)cccc3Cl)cc2C1=O (stereo not drawn) | > 100 µM
CC1(C)CN=C(NN=C(/C=C/c2ccc(C(F)(F)F)cc2)/C=C/c2ccc(C(F)(F)F)cc2)NC1 | 3.23 µM
O=C1Nc2ccccc2/C1=C1\CCc2cc(O)ccc21 | > 25 µM
COc1ccc(/C(C)=C(\c2ccc(OCCN3CCCCCC3)cc2)c2ccc(OC(=O)C3CCCCC3)cc2)cc1 | 4.32 µM
CC1NC(=O)[C@H](C)N(C)C(=O)[C@@H]2CCCN2C(=O)[C@@H](NC(=O)C(Cc2ccccc2)NC(=O)/C=C/C=C/C=C/C=C/C=C/C(=O)NC2=C(O)CCC2=O)COC(=O)[C@@H]2CCCN2C1=O (stereo partly drawn) (X26-[ξF]SP[NMeA][ξA]P; ester 2-C) | > 100 µM
C[C@@H](Cl)[C@H]1CCCN(Cc2ccc(Br)cc2)C1 | > 12.5 µM
CNc1ncnc2c1cnn2COCC(O)CO (stereo not drawn) | > 100 µM
CN(C)CCNCCN | > 100 µM
CC(C)(C)OC(=O)NCCC(N)=S | > 100 µM
Cc1cccc(C2=C/C(=C(\SS/C(C(=O)c3ccc(OCC(=O)O)c(Cl)c3Cl)=C3\C=C(c4cccc(C)c4)SS3)C(=O)c3ccc(OCC(=O)O)c(Cl)c3Cl)SS2)c1 | 38.7 µM
O=C(/C=C/c1ccccc1)c1ccccc1 | > 10 µM
O=C(Oc1cc(=O)c(OC(=O)c2ccccc2)co1)c1ccccc1 | > 100 µM
S=c1[nH]c2ccc(Br)cc2c(=S)s1 | 82.6 µM
CC(C)CCC[C@@H](C)C1CCC2[C@@H]3CC=C4C[C@@H](C(=O)NCCN(C)C)CC[C@]4(C)C3CC[C@@]21C (stereo partly drawn) | 52.1 µM
O=c1[nH]cnc2c1ncn2[C@@H]1C[C@@H]1CO | > 100 µM
C=Cc1ccc(C)[n+](C[Si](C)(C)O[Si](C)(C)C[n+]2cc(C=C)ccc2C)c1 | > 100 µM
O=C1CCCN1c1ccccc1I(=O)=O | > 100 µM
C=CC(=O)N1CN(C(=O)C=C)CN(C(=O)C=C)C1 | 9.15 µM
COc1c(O)c2c3c(c(C)cc(O)c3c1O)C(=O)C(O)(C(C)(C)C(C)=O)C2=O (stereo not drawn) | > 100 µM
CCOC(=O)c1c(-c2ccccc2)c(-c2ccccc2)cn1C | > 10 µM
COC(=O)/C([Se]c1c(C)cc(C)cc1C)=C(/[Se]c1c(C)cc(C)cc1C)C(=O)OC | > 100 µM
O=C(Nc1cc(Cl)ccc1O)c1ccc(Nc2ccnc(C(F)(F)F)c2)cc1 | 7.81 µM
CCOC(=O)NC(=O)c1cn(C2CCCCC2)c(=O)[nH]c1=O | > 100 µM
CCN(CC)CCCNC(=O)c1ccc([N+](=O)[O-])cc1O | > 100 µM
